System: Oilseed Rape
Experiment: Test C pre-/postemergence: oilseed rape
Assay type: in vivo
Settings: Postemergence, 31 g ai/ha; scale 0 to 100 (0 no effect, 100 complete control)
observation type: Plant response rating, Oilseed Rape
I only need the number, thanks.

### Prompt GET /values?readout=Plant response rating, Oilseed Rape&system=Oilseed Rape&item= CCCc1nn(-c2ccc(F)cc2)nc1Oc1ccnc(C(F)(F)F)c1
### Response 40

### Prompt What do you have for CCOc1nn(-c2ccc(Cl)cc2)nc1Cc1ccnc(C(F)(F)F)c1 ?
### Response 40

### Prompt What do you have for CCCc1nn(-c2ccc(C(F)(F)F)cc2)nc1Oc1ccnc(C(F)(F)F)c1 ?
### Response 30

### Prompt What do you have for CCc1nn(-c2ccc(F)c(F)c2)nc1Oc1ccnc(C(F)(F)F)c1 ?
### Response 5

====

The following compounds are shown together with reported Plant response rating, Ducksalad values.
Tested on: ducksalad (Heteranthera limosa)
Test: Test C flooded paddy test: ducksalad
Type: in vivo
Details: Flood, 62 g ai/ha; scale 0 to 100 (0 no effect, 100 complete control)
I only need the number, thanks.

### Prompt GET /values?readout=Plant response rating, Ducksalad&system=ducksalad (Heteranthera limosa)&item= CCc1nn(-c2ccc(C(F)(F)F)cc2)nc1Cn1cnc(C(F)(F)F)c1
### Response 0

### Prompt What do you have for Cc1nn(-c2ccc(F)cc2)nc1Oc1ccnc(C(F)(F)F)n1 ?
### Response 20

### Prompt What do you have for CCc1nn(-c2ccc(C(F)(F)F)cc2)nc1Cn1nc(C(F)(F)F)cc1C ?
### Response 0

### Prompt What do you have for Cc1nn(-c2ccc(C(F)(F)F)cc2)nc1Cn1nc(C(F)(F)F)cc1C ?
### Response 0

### Prompt What do you have for Cc1nn(-c2ccc(C(F)(F)F)cc2)nc1Cn1cnc(C(F)(F)F)c1 ?
### Response 40

====

System: corn (Zea mays)
Assay: Test A pre-/postemergence: corn
Type: in vivo
Details: Preemergence, 125 g ai/ha; 0 to 100 scale where 0 is no effect and 100 is complete control
observation type: Plant response rating, Corn

Answered examples (4):
CCCCc1nn(-c2ccc(C(F)(F)F)cc2)nc1Oc1ccnc(C(F)(F)F)c1 ... 0
CCc1nn(-c2ccc(C(F)(F)F)cc2)nc1Cn1cnc(C(F)(F)F)c1Cl ... 0
CCCOc1nn(-c2ccc(C(F)(F)F)cc2)nc1Cc1ccnc(C(F)(F)F)c1 ... 20
CCc1nn(-c2ccc(C(F)(F)F)cc2)nc1Oc1ccnc(C(F)(F)F)c1 ... 20

Moving on to another molecule below.
### Prompt Requested read-out: Plant response rating, Corn. Entry: CC(=O)Oc1nn(-c2ccc(C(F)(F)F)cc2)nc1Cc1ccnc(C(F)(F)F)c1
### Response 0

====

The following compounds are shown together with reported Plant response rating, Arrowleaf Sida values.
System: arrowleaf sida (Sida rhombifolia)
Experiment: Test F pre-/postemergence: arrowleaf sida
Format: in vivo
Conditions: Postemergence; 125 g ai/ha; scale 0 to 100
I only need the number, thanks.

### Prompt Requested read-out: Plant response rating, Arrowleaf Sida. Entry: CCCc1nn(-c2ccc(F)c(F)c2)nc1Oc1ccnc(C(F)(F)F)c1
### Response 90

### Prompt What do you have for CCOc1nn(-c2ccc(F)cc2)nc1Cc1ccnc(C(F)(F)F)c1 ?
### Response 95

### Prompt What do you have for CCc1nn(-c2ccc(C(F)(F)F)cc2)nc1Oc1ccnc(C(F)(F)F)c1 ?
### Response 30

### Prompt What do you have for Cc1nn(-c2ccnc(Cl)c2)nc1Cc1ccnc(C(F)(F)F)c1 ?
### Response 75
